Target: α2B (h) (Homo sapiens, UniProt P18089)
Sequence (P18089 whole entry): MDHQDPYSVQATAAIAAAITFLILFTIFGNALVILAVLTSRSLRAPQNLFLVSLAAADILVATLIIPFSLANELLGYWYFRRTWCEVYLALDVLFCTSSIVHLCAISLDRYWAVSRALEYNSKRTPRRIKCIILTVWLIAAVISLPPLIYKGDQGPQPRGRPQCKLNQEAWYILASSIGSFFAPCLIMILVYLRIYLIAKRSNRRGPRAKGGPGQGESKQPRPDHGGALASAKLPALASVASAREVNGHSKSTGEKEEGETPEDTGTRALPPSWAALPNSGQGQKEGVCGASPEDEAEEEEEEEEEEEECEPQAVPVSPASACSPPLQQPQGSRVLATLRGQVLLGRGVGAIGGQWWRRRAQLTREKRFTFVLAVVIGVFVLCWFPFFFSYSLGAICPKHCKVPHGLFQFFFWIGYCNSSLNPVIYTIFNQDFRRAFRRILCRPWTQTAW
Assay: α2B (h) (antagonist radioligand) binding
Conditions: α2B (h) (antagonist radioligand)
Procedure: Representative compounds were tested to determine IC50 or EC50 in receptor functional assays. […] Compound binding was calculated as a % inhibition of the binding of a radioactively labeled ligand specific for each target. Cellular agonist effect was calculated as a % of control response to a known reference agonist for each target and cellular antagonist effect was calculated as a % inhibition of control reference agonist response for each target. […]
RESULT_TYPE: nH

Illustrative cases are given below, each with its answer.
O=C(NC1CCN(CCc2ccccc2)CC1)c1ccccc1 [N-(1-phenethylpiperidin-4-yl)benzamide]; 1.3
O=C(NC1CCN(CCc2ccccc2)CC1)c1ccoc1; 0.7
CCC(=O)NC1CCN(CCC(=O)OC)CC1; 1
O=C(CCCCCCCBr)NC1CCN(CCc2ccccc2)CC1; 0.8
CCC(=O)NC1CCN(CCc2cccs2)CC1; 1.2

API: the following record is the query input.
Ask | Which nH is reported with α2B (h) (Homo sapiens, UniProt P18089) for this entry: `O=C(NC1CCN(CCc2ccccc2)CC1)c1ccco1` ?
Reply | 0.7

---

Target: μ (MOP) (h) (Homo sapiens, UniProt P35372)
Sequence (P35372 whole entry): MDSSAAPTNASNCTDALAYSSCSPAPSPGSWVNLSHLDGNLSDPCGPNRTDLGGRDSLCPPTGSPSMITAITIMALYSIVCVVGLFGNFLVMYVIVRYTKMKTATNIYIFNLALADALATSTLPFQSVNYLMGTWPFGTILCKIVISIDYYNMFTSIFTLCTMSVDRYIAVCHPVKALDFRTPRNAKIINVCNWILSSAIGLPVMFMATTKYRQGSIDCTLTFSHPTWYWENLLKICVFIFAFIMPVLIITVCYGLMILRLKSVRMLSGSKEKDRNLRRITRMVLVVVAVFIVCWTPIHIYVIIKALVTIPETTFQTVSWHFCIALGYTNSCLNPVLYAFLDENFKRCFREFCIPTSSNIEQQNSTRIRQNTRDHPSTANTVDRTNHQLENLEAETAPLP
Assay: μ (MOP) (h) (agonist effect) cellular functional assay
RESULT_TYPE: pEC50
Entry type: numeric. Quantity: pEC50, the -log10 of concentration in molar units.

Ask | I would be grateful if you could share the reported pEC50 for `CCC(=O)NC1CCN(CCC(=O)OC)CC1` .
Reply | 3.54

---

Target: μ (MOP) (h) (Homo sapiens)
Assay type: binding
Each entry below carries its recorded nH.
Respond with the number and no other words.

Ask | Reported nH for O=C(NC1CCN(CCc2ccccc2)CC1)c1ccccc1 [N-(1-phenethylpiperidin-4-yl)benzamide] : what is it?
Reply | 0.9

Ask | For the compound `O=C(NC1CCN(CCc2ccccc2)CC1)c1ccco1` , what nH is on record?
Reply | 0.8

Ask | Which measured nH value corresponds to `O=C(NC1CCN(CCc2ccccc2)CC1)c1ccoc1` ?
Reply | 0.8

Ask | Endpoint output: nH of `CCC(=O)NC1CCN(CCC(=O)OC)CC1` . Value?
Reply | 0.5

---

Biological target: α2B (h) (Homo sapiens)
Assay: α2B (h) (antagonist effect) cellular functional assay
Type: cell-based
RESULT_TYPE: Kb (µM)
Numeric only. Scale: µM

// below: answered compounds
O=C(NC1CCN(CCc2ccccc2)CC1)c1ccco1; 50
CCC(=O)NC1CCN(CCc2cccs2)CC1; 57
O=C(NC1CCN(CCc2ccccc2)CC1)c1ccoc1; 50

Ask | // Kb lookup, key: O=C(NC1CCN(CCc2ccccc2)CC1)c1ccccc1 [N-(1-phenethylpiperidin-4-yl)benzamide]
Reply | 46

Ask | Item under review: `O=C(CCCCCCCBr)NC1CCN(CCc2ccccc2)CC1` . Reported Kb?
Reply | 46

---

Assay: Caco-2 permeability (bi-directional)
Settings: human, Caco-2, pH 6.8
RESULT_TYPE: efflux ratio at 120 min, 10 µM
Lab note: jot the number down without any unit.

Ask | Sample CCC(=O)NC1CCN(CCc2ccccc2)CC1 [HCV-3] — what was its efflux ratio at 120 min, 10 µM?
Reply | 2.7

---

Values of pKi reported for α2B (h) (Homo sapiens, UniProt P18089) appear below.
Would you please state pKi, meaning minus log10 of the concentration in mol/L, as a bare number?

Worked examples, 5 molecules total:
O=C(NC1CCN(CCc2ccccc2)CC1)c1ccoc1; 5.52
CCC(=O)NC1CCN(CCC(=O)OC)CC1; 3.74
O=C(NC1CCN(CCc2ccccc2)CC1)c1ccccc1 [N-(1-phenethylpiperidin-4-yl)benzamide]; 6.57
O=C(NC1CCN(CCc2ccccc2)CC1)c1ccco1; 5.52
CCC(=O)NC1CCN(CCc2cccs2)CC1; 5.12

Consider the record given below.
Ask | Recall the recorded pKi for `O=C(CCCCCCCBr)NC1CCN(CCc2ccccc2)CC1` with α2B (h) (Homo sapiens, UniProt P18089) and state it.
Reply | 5.42
